This collection of values is drawn from patent US20260250371A1.

Biological target: T1, cynomolgus monkey (Macaca fascicularis) FGF23 (R179Q) (cynomolgus monkey (Macaca fascicularis), UniProt Q9GZV9 25-251 (human entry), limits assumed)
T1 construct: also called cynoFGF23; cynoFGF23(R179Q)
T1 chain: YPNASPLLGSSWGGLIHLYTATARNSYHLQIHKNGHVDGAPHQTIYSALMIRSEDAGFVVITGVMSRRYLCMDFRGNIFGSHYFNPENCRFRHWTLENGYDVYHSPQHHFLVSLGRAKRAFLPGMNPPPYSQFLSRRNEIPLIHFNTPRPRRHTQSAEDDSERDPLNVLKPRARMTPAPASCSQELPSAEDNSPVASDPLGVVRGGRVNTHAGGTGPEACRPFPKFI
Assay: SPR, antibody captured on hIgG chip, cynoFGF23(R179Q) analyte, single cycle kinetics
Protocol: Binding kinetics of 13 antibody variants shown in Table 19 were characterized against cynomolgus monkey (Macaca fascicularis) FGF23 (R179Q) (i.e., “cynoFGF23”) (SEQ ID NO: 372). Antibody variants were expressed at small scale (3 ml) and screened by SPR analysis at a single concentration (100 nM). […]
endpoint-label: KD ratio (variant antibody KD/burosumab KD)
A bare number is all that is needed in reply.

Illustrative cases are given below, each with its answer.
# binder, reported-measurement
data = [
    ("UGX139 (antibody, human IgG1, kappa, V domains shown, also called UGX038; LC:N92Y) VH: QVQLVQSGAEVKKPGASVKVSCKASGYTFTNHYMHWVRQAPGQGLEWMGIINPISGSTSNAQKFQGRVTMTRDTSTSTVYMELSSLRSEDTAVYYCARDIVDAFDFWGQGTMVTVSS VL: AIQLTQSPSSLSASVGDRVTITCRASQGISSALVWYQQKPGKAPKLLIYDASSLESGVPSRFSGSGSGTDFTLTISSLQPEDFATYYCQQFYDYFTFGPGTKVDIKR", 1),
    ("UGX202 (antibody, human IgG1, kappa, V domains shown, also called HC:S59E, LC:N92Y; S59E/N92Y) VH: QVQLVQSGAEVKKPGASVKVSCKASGYTFTNHYMHWVRQAPGQGLEWMGIINPISGSTENAQKFQGRVTMTRDTSTSTVYMELSSLRSEDTAVYYCARDIVDAFDFWGQGTMVTVSS VL: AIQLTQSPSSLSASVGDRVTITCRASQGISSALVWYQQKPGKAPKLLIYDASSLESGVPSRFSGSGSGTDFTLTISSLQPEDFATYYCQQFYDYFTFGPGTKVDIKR", 3),
]

Item UGX157 (antibody, human IgG1, kappa, V domains shown, also called HC:I54Y; I54Y) VH: QVQLVQSGAEVKKPGASVKVSCKASGYTFTNHYMHWVRQAPGQGLEWMGIINPYSGSTSNAQKFQGRVTMTRDTSTSTVYMELSSLRSEDTAVYYCARDIVDAFDFWGQGTMVTVSS VL: AIQLTQSPSSLSASVGDRVTITCRASQGISSALVWYQQKPGKAPKLLIYDASSLESGVPSRFSGSGSGTDFTLTISSLQPEDFATYYCQQFNDYFTFGPGTKVDIKR : provide KD ratio (variant antibody KD/burosumab KD)
4
